targetUnderTest: UnaG (CΔ0)-NLuc (NΔ1) fusion protein (wild-type chemiluminescent bilirubin indicator, linker GT), SEQ ID NO: 12 (Anguilla japonica)
Sequence (P0DM59 with tags, fused parts or gaps): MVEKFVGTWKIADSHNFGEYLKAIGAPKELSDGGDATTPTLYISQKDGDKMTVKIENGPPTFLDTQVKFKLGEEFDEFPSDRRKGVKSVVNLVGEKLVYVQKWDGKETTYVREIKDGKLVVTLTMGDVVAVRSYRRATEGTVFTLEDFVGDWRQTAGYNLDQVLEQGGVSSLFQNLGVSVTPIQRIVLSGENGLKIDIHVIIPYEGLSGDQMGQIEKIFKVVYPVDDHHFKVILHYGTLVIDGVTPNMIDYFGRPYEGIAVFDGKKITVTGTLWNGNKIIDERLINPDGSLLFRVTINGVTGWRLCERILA
assayMethodText: titration curve of the wild-type chemiluminescent bilirubin indicator with bilirubin (luminescence spectra, Hill fit)
measurementParameters: fusion protein 5 nM, bilirubin 0.01-10 nM, Coelenterazine-h 5 μM; mean of three independent measurements, fitted as per the Hill equation
pKd: −log10 of the molar value.
reportedMetric: pKd

moleculeSmiles	reportedMetric	valueObserved
C=CC1=C(C)/C(=C/c2[nH]c(Cc3[nH]c(/C=C4\NC(=O)C(C)=C4C=C)c(C)c3CCC(=O)O)c(CCC(=O)O)c2C)NC1=O	pKd	8.52
